# Test system: LXRa homodimer (NR concentration 270 nM)
# ASSAY_SUMMARY: PBM binding z-score (relative to random genomic background probes); higher = stronger binding; sequences stand for … in GC…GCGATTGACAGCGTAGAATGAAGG
QUANTITY_KIND: PBM binding z-score

[[record]]
record_sequence = "CGACCAAGGTGAACAAGGTCGTTGATTACTATTC"
endpoint_value = -0.248

[[record]]
record_sequence = "CCTAGCAGGCCAGGGTCACTCCAGCATTTCGCTT"
endpoint_value = -0.465

[[record]]
record_sequence = "CGTCCTAGGTCATAGGAGGTCAGTGAAGACAGAT"
endpoint_value = 3.87

[[record]]
record_sequence = "CCGAGTAGGTTATGTGGCATTCAGGCAACGGTGA"
endpoint_value = 0.0932

[[record]]
record_sequence = "CCGACTGGGGCAAAGGTTACTATACTCAGTACGA"
endpoint_value = 0.145

[[record]]
record_sequence = "CCGACTGGGACAAAGGTTACCATACTCAGTACGA"
endpoint_value = 0.114

[[record]]
record_sequence = "ATCGAAAGATCGAGGTGAGTATAGAGAAAGGGAA"
endpoint_value = -0.321

[[record]]
record_sequence = "TGAATGAGGTTCTAAGATCAGGGAACGTTGCAAA"
endpoint_value = -0.989

[[record]]
record_sequence = "TAGCCTAGGTCATGCGGGCCAGTACAGTGTCGGC"
endpoint_value = 0.179

[[record]]
record_sequence = "CCTGCTAGGTCATTGGTCAGCTAAAGCAGCTCGC"
endpoint_value = 0.559

[[record]]
record_sequence = "AACTCTAGGTAAAGATAGTTCAGTGAATGCAAAT"
endpoint_value = 0.498

[[record]]
record_sequence = "TTACCAGGGTGAAGGTCGTTGATCCCTCTGTAGA"
endpoint_value = -0.022


Value source: the supplement of paper PMC6555819
